# TEST: Bioavailability in rat at 0.5 mg/kg, iv and 1 mg/kg, po
# Format: ADME, organism-based
# CONDITION INFO: in vivo
QUANTITY NAME: bioavailability (%)

[A] CCS(=O)(=O)c1ccc2oc(Nc3ccc(OC(C)C)cc3)nc2c1
[B] CCS(=O)(=O)c1ccc2oc(Nc3ccc(N4C[C@@H](C)O[C@@H](C)C4)cc3)nc2c1
*Q* Field: lower recorded bioavailability (choose A or B ) Please respond with the label that marks your chosen entry.
*A* A

---

# TEST: Volume of distribution at steady state in rat at 0.5 mg/kg, iv and 1 mg/kg, po
# Type: ADME, organism-based
# CONDITION INFO: in vivo, read-out: Vdss
QUANTITY NAME: Vd (L/kg)

[a] CCS(=O)(=O)c1ccc2oc(Nc3ccc(OC(C)C)cc3)nc2c1
[b] CCS(=O)(=O)c1ccc2oc(Nc3ccc(N4C[C@@H](C)O[C@@H](C)C4)cc3)nc2c1
*Q* Thinking about recorded Vd values, which is higher, a or b ? # reply format: chosen label
*A* a
